test system: HeLa Kyoto; experiment: solubility in G1/S (NP-40 vs SDS abundance) (log2 ratio); higher = more soluble; settings: cell cycle stage: G1/S;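 note: HeLa Kyoto cells arrested at G1/S by double thymidine block, proteins quantified by TMT10plex mass spectrometry in mild NP-40 versus SDS extracts, three biological replicates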
Assign MET to entries whose solubility in G1/S (log2) meets or exceeds 0.1; assign NOT MET to the rest.

SEQUENCE CHAIN	ASSIGNED CATEGORY
MAVSVTPIRDTKWLTLEVCREFQRGTCSRPDTECKFAHPSKSCQVENGRVIACFDSLKGRCSRENCKYLHPPPHLKTQLEINGRNNLIQQKNMAMLAQQMQLANAMMPGAPLQPVPMFSVAPSLATNASAAAFNPYLGPVSPSLVPAEILPTAPMLVTGNPGVPVPAAAAAAAQKLMRTDRLEVCREYQRGNCNRGENDCRFAHPADSTMIDTNDNTVTVCMDYIKGRCSREKCKYFHPPAHLQAKIKAAQYQVNQAAAAQAAATAAAMTQSAVKSLKRPLEATFDLGIPQAVLPPLPKRPALEKTNGATAVFNTGIFQYQQALANMQLQQHTAFLPPVPMVHGATPATVSAATTSATSVPFAATATANQIPIISAEHLTSHKYVTQM [MBNL1]	MET
MSASAPAAEGEGTPTQPASEKEPEMPGPREESEEEEDEDDEEEEEEEKEKSLIVEGKREKKKVERLTMQVSSLQREPFTIAQGKGQKLCEIERIHFFLSKKKTDELRNLHKLLYNRPGTVSSLKKNVGQFSGFPFEKGSVQYKKKEEMLKKFRNAMLKSICEVLDLERSGVNSELVKRILNFLMHPKPSGKPLPKSKKTCSKGSKKERNSSGMARKAKRTKCPEILSDESSSDEDEKKNKEESSDDEDKESEEEPPKKTAKREKPKQKATSKSKKSVKSANVKKADSSTTKKNQNSSKKESESEDSSDDEPLIKKLKKPPTDEELKETIKKLLASANLEEVTMKQICKKVYENYPTYDLTERKDFIKTTVKELIS	NOT MET
MAGMVDFQDEEQVKSFLENMEVECNYHCYHEKDPDGCYRLVDYLEGIRKNFDEAAKVLKFNCEENQHSDSCYKLGAYYVTGKGGLTQDLKAAARCFLMACEKPGKKSIAACHNVGLLAHDGQVNEDGQPDLGKARDYYTRACDGGYTSSCFNLSAMFLQGAPGFPKDMDLACKYSMKACDLGHIWACANASRMYKLGDGVDKDEAKAEVLKNRAQQLHKEQQKGVQPLTFG [COA7]	MET
MEDPQSKEPAGEAVALALLESPRPEGGEEPPRPSPEETQQCKFDGQETKGSKFITSSASDFSDPVYKEIAITNGCINRMSKEELRAKLSEFKLETRGVKDVLKKRLKNYYKKQKLMLKESNFADSYYDYICIIDFEATCEEGNPPEFVHEIIEFPVVLLNTHTLEIEDTFQQYVRPEINTQLSDFCISLTGITQDQVDRADTFPQVLKKVIDWMKLKELGTKYKYSLLTDGSWDMSKFLNIQCQLSRLKYPPFAKKWINIRKSYGNFYKVPRSQTKLTIMLEKLGMDYDGRPHCGLDDSKNIARIAVRMLQDGCELRINEKMHAGQLMSVSSSLPIEGTPPPQMPHFRK [ERI1]	NOT MET

Input line: Does solubility in G1/S (log2) meet or surpass 0.1 for MAEYLASIFGTEKDKVNCSFYFKIGACRHGDRCSRLHNKPTFSQTIALLNIYRNPQNSSQSADGLRCAVSDVEMQEHYDEFFEEVFTEMEEKYGEVEEMNVCDNLGDHLVGNVYVKFRREEDAEKAVIDLNNRWFNGQPIHAELSPVTDFREACCRQYEMGECTRGGFCNFMHLKPISRELRRELYGRRRKKHRSRSRSRERRSRSRDRGRGGGGGGGGGGGGRERDRRRSRDRERSGRF [U2AF1] ?
Output line: NOT MET

Input line: Exam item: decide whether the reported solubility in G1/S (log2) for MSRGPSSAVLPSALGSRKLGPRSLSCLSDLDGGVALEPRACRPPGSPGRAPPPTPAPSGCDPRLRPIILRRARSLPSSPERRQKAAGAPGAACRPGCSQKLRVRFADALGLELAQVKVFNAGDDPSVPLHVLSRLAINSDLCCSSQDLEFTLHCLVPDFPPPVEAADFGERLQRQLVCLERVTCSDLGISGTVRVCNVAFEKQVAVRYTFSGWRSTHEAVARWRGPAGPEGTEDVFTFGFPVPPFLLELGSRVHFAVRYQVAGAEYWDNNDHRDYSLTCRNHALHMPRGECEESWIHFI [PPP1R3D] is at least 0.1.
Output line: NOT MET

Input line: Reported solubility in G1/S (log2) reaches at least 0.1 for MASTGSQASDIDEIFGFFNDGEPPTKKPRKLLPSLKTKKPRELVLVIGTGISAAVAPQVPALKSWKGLIQALLDAAIDFDLLEDEESKKFQKCLHEDKNLVHVAHDLIQKLSPRTSNVRSTFFKDCLYEVFDDLESKMEDSGKQLLQSVLHLMENGALVLTTNFDNLLELYAADQGKQLESLDLTDEKKVLEWAQEKRKLSVLHIHGVYTNPSGIVLHPAGYQNVLRNTEVMREIQKLYENKSFLFLGCGWTVDDTTFQALFLEAVKHKSDLEHFMLVRRGDVDEFKKLRENMLDKGIKVISYGDDYADLPEYFKRLTCEISTRGTSAGMVREGQLNGSSAAHSEIRGCST [FAM118B] ?
Output line: MET

Input line: Quick check, solubility in G1/S (log2) >= 0.1? MNRSHRHGAGSGCLGTMEVKSKFGAEFRRFSLERSKPGKFEEFYGLLQHVHKIPNVDVLVGYADIHGDLLPINNDDNYHKAVSTANPLLRIFIQKKEEADYSAFGTDTLIKKKNVLTNVLRPDNHRKKPHIVISMPQDFRPVSSIIDVDILPETHRRVRLYKYGTEKPLGFYIRDGSSVRVTPHGLEKVPGIFISRLVPGGLAQSTGLLAVNDEVLEVNGIEVSGKSLDQVTDMMIANSRNLIITVRPANQRNNVVRNSRTSGSSGQSTDNSLLGYPQQIEPSFEPEDEDSEEDDIIIEDNGVPQQIPKAVPNTESLESLTQIELSFESGQNGFIPSNEVSLAAIASSSNTEFETHAPDQKLLEEDGTIITL [PARD6B]
Output line: NOT MET

Input line: Evaluate MPILKQLVSSSVHSKRRSRADLTAEMISAPLGDFRHTMHVGRAGDAFGDTSFLNSKAGEPDGESLDEQPSSSSSKRSLLSRKFRGSKRSQSVTRGEREQRDMLGSLRDSALFVKNAMSLPQLNEKEAAEKGTSKLPKSLSSSPVKKANDGEGGDEEAGTEEAVPRRNGAAGPHSPDPLLDEQAFGDLTDLPVVPKATYGLKHAESIMSFHIDLGPSMLGDVLSIMDKEEWDPEEGEGGYHGDEGAAGTITQAPPYAVAAPPLARQEGKAGPDLPSLPSHALEDEGWAAAAPSPGSARSMGSHTTRDSSSLSSCTSGILEERSPAFRGPDRARAAVSRQPDKEFSFMDEEEEDEIRV [CDC42EP4] : solubility in G1/S (log2) at minimum 0.1?
Output line: MET
